These entries and their values trace back to ChEMBL document CHEMBL5352488.

- ASSAY_INFO: Cytotoxicity against human MT4 cells assessed as reduction in cell viability by MTT assay
- Type: toxicity, cell-based
REPORTED_PROPERTY: CC50

COMPOUND: Cc1c(C(N=[N+]=[N-])c2ccc(F)cc2)nc(SC(C)C)[nH]c1=O (stereo not given)
REPORTED_PROPERTY: CC50
REPORTED_MEASUREMENT: 320 µM
//
COMPOUND: CC(C)Sc1nc(C(N=[N+]=[N-])c2ccccc2)c(C(C)C)c(=O)[nH]1 (stereo not given)
REPORTED_PROPERTY: CC50
REPORTED_MEASUREMENT: > 364 µM
//
COMPOUND: COc1cc(OC)cc(C(N=[N+]=[N-])c2nc(SC(C)C)[nH]c(=O)c2C)c1 (stereo not given)
REPORTED_PROPERTY: CC50
REPORTED_MEASUREMENT: > 333 µM
//
COMPOUND: CCc1c(C(N=[N+]=[N-])c2ccc(Br)cc2)nc(SC(C)C)[nH]c1=O (stereo not given)
REPORTED_PROPERTY: CC50
REPORTED_MEASUREMENT: > 306 µM
//
COMPOUND: Cc1ccc(C(N=[N+]=[N-])c2nc(SC(C)C)[nH]c(=O)c2C)cc1 (stereo not given)
REPORTED_PROPERTY: CC50
REPORTED_MEASUREMENT: 7.73 µM
//
COMPOUND: CCc1c(C(N=[N+]=[N-])c2ccccc2)nc(SC(C)C)[nH]c1=O (stereo not given)
REPORTED_PROPERTY: CC50
REPORTED_MEASUREMENT: > 379 µM
//
COMPOUND: Cc1cc(C)cc(C(N=[N+]=[N-])c2nc(SC(C)C)[nH]c(=O)c2C(C)C)c1 (stereo not given)
REPORTED_PROPERTY: CC50
REPORTED_MEASUREMENT: > 336 µM
//
COMPOUND: CCc1c(C(N=[N+]=[N-])c2cc(C)cc(C)c2)nc(SC(C)C)[nH]c1=O (stereo not given)
REPORTED_PROPERTY: CC50
REPORTED_MEASUREMENT: > 350 µM
//
COMPOUND: CCc1c(C(N=[N+]=[N-])c2cccc3ccccc23)nc(SC(C)C)[nH]c1=O (stereo not given)
REPORTED_PROPERTY: CC50
REPORTED_MEASUREMENT: 77.7 µM
//
COMPOUND: Cc1c(C(N=[N+]=[N-])c2ccc(Br)cc2)nc(SC(C)C)[nH]c1=O (stereo not given)
REPORTED_PROPERTY: CC50
REPORTED_MEASUREMENT: > 317 µM

====

- System: Human immunodeficiency virus 1
- ASSAY_INFO: Anti-HIV activity against drug resistant HIV-1 harboring Y188L mutant infected in human MT4 cells assessed as inhibition of virus-induced cytopathic effect by MTT assay
- Format: functional, organism-based
- COND: Human immunodeficiency virus 1, MT4
pEC50: −log10 of the molar value.
Would you mind labelling by pEC50? At or over 4 is 1 (yes), under is 0 (no).

COMPOUND: CCc1c(C(N=[N+]=[N-])c2cccc3ccccc23)nc(SC(C)C)[nH]c1=O (centres undefined)
CLASS_LABEL: 1 (yes)

COMPOUND: Cc1cc(C)cc(C(N=[N+]=[N-])c2nc(SC(C)C)[nH]c(=O)c2C)c1 (centres undefined)
CLASS_LABEL: 0 (no)

COMPOUND: COc1cc(OC)cc(C(N=[N+]=[N-])c2nc(SC(C)C)[nH]c(=O)c2C(C)C)c1 (centres undefined)
CLASS_LABEL: 1 (yes)

COMPOUND: Cc1c(C(N=[N+]=[N-])c2ccc3ccccc3c2)nc(SC(C)C)[nH]c1=O (centres undefined)
CLASS_LABEL: 1 (yes)

COMPOUND: Cc1c(C(N=[N+]=[N-])c2ccc(Cl)cc2)nc(SC(C)C)[nH]c1=O (centres undefined)
CLASS_LABEL: 0 (no)

COMPOUND: CCc1c(C(N=[N+]=[N-])c2ccccc2)nc(SC(C)C)[nH]c1=O (centres undefined)
CLASS_LABEL: 0 (no)

COMPOUND: COc1cc(OC)cc(C(N=[N+]=[N-])c2nc(SC(C)C)[nH]c(=O)c2C)c1 (centres undefined)
CLASS_LABEL: 0 (no)
